This collection of values is drawn from patent US20240182536A1.

TARGET_ENTITY: T1, mouse IL-18 receptor alpha (mouse, UniProt Q61098 20-326, limits assumed)
T1 construct: also called Mouse IL18Ra; mouse IL-18R alpha
T1 sequence (looked up): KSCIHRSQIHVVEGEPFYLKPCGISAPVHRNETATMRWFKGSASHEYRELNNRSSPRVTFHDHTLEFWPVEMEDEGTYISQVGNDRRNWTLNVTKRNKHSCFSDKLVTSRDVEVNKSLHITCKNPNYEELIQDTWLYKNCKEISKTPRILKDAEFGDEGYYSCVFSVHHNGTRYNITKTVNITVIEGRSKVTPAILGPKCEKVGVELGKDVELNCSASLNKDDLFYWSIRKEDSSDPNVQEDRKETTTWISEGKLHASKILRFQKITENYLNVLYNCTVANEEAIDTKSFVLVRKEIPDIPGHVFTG
METHOD_DESCRIPTION: Octet BLI, monoFc scaffold
PROPERTY_MEASURED: pKd
Conceptually, pKd converts a concentration in mol/L into minus its log10.

binder="mouse IL-18 G3V/L59K on monoFc scaffold (Fc fusion, not shown: small tags and cut ends) NFVRLHSTTAVIRNINDQVLFVDKRQPVFEDMTDIDQSASEPQTRLIIYMYKDSEVRGKAVTLSVKDSKMSTLSSKNKIISFEEMDPPENIDDIQSDLIFFQKRVPGHNKMEFESSLYEGHFLASQKEDDAFKLILKKKDENGDKSVMFTLTNLHQSNGGPSVFLFPPKPKDTLMISRTPEVTCVVVDVSHEDPEVKFNWYVDGVEVHNAKTKPREEQYNSTYRVVSVLTVLHQDWLNGKEYKCKVSNKALPAPIEKTISKAKGQPREPQVYTLPPSREEMTKNQVNLTCLVKGFYPSDIAVEWESNGQPENNYKTTPPVLDSDGSFFLNSTLTVDKSRWQQGNVFSCSVMHEALHNHYTQKSLSLS" endpoint_result=7.84

Shifting focus to the binder that follows.
Please report pKd for the following binder: Comparator 5 on monoFc scaffold (Fc fusion, not shown: small tags and cut ends) HFGRLHCTTAVIRNINDQVLFVDKRQPVFEDMTDIDQSASEPQTRLIIYAYGDSRARGKAVTLSVKDSKMSTLSCKNKIISFEEMDPPENIDDIQSDLIFFQKRVPGHNKMEFESSLYEGHFLACQKEDDAFKLILKKKDENGDKSVMFTLTNLHQSNGGPSVFLFPPKPKDTLMISRTPEVTCVVVDVSHEDPEVKFNWYVDGVEVHNAKTKPREEQYNSTYRVVSVLTVLHQDWLNGKEYKCKVSNKALPAPIEKTISKAKGQPREPQVYTLPPSREEMTKNQVNLTCLVKGFYPSDIAVEWESNGQPENNYKTTPPVLDSDGSFFLNSTLTVDKSRWQQGNVFSCSVMHEALHNHYTQKSLSLS
8.90
